- experimental.system: insulin-degrading enzyme (recombinant human IDE) (human), P14735
- run.conditions: modification not given
readout.kind: pKi
Answer as the number alone; pKi is minus log10 of concentration in mol/L.

Exercise: Request the reported pKi associated with FRY [3-fluorophenylalanine]
Solution: 5.15
